Target: recombinant Axl tyrosine kinase (Homo sapiens)
Construct: encompassing amino acids 473 to 894 of Axl; GST (N); made in house; host or cells: SF126 insect cells
Experiment: In vitro Axl kinase assay (AlphaScreen), Test (a)
Assay type: biochemical
Details: test compound at 1 μM; first value quoted
Method: Test compounds were prepared as 10 mM stock solutions in dimethylsulphoxide (DMSO) and diluted in DMSO as required. Aliquots (120 nl) of compound dilutions were filled into the wells of a Greiner 384-well low volume (LV) white polystyrene plate (Greiner Bio-one) using acoustic dispensing (Labcyte Echo 550). […]
QUANTITY: % Axl tyrosine kinase inhibition at 1 μM concentration (%)

Nc1ncc(-c2ccc(C(=O)N3CCN(Cc4ccccn4)CC3)cc2)cc1-c1nc2ncccc2o1 [Example 45B.4]; 99.6
CC(=O)Nc1cccc(-c2cnc(N)c(-c3nc4ccccc4o3)c2)c1 [Example 2.20]; 97.6
CN(C)CCC1CCN(C(=O)c2ccc(-c3cnc(N)c(-c4nc5cccnc5o4)c3)cc2)CC1 [Example 45A.14]; 89.9
CC(C)(C)OC(=O)N1CCC(C(=O)Nc2cccc(-c3cnc(N)c(-c4nc5cccnc5o4)c3)c2)CC1 [Example 9A.3]; 73.4
Nc1ncc(-c2ccc(CO)s2)cc1-c1nc2ncccc2o1 [Example 10A.19]; 90.1
CN1CCC(NC(=O)c2ccc(-c3cnc(N)c(-c4nc5cccnc5o4)c3)cc2)C2CCCCC21 (stereo not drawn) [Example 45A.44]; 99.3
COc1cc(-c2cnc(N)c(-c3nc4ncccc4o3)c2)ccc1OCCC1CCCCN1C (stereo not drawn) [Example 43C.13]; 99.9
Cc1nn(C2CCN(C)CC2)cc1-c1cnc(N)c(-c2nc3c(F)cccc3o2)c1 [Example 41.23]; 100.0
Nc1ncc(-c2ccc(C(=O)NCCN3CCCC3)cc2)cc1-c1nc2cccnc2o1 [Example 45A.55]; 98.9
CN1CCCCC1CCOc1ccc(-c2cnc(N)c(-c3nc4ncccc4o3)c2)cc1 (stereo not drawn) [Example 43B.13]; 96.8
CN(C)c1cccc(-c2cnc(N)c(-c3nc4ccccc4o3)n2)c1 [Example 20.15]; 96.9
Nc1ncc(-c2ccc(C(=O)N3CCCC3CN3CCOCC3)cc2)cc1-c1nc2cccnc2o1 (stereo not drawn) [Example 45A.16]; 94.2
COc1cccc2oc(-c3cc(-c4cnn(C5CCN(C)CC5)c4)cnc3N)nc12 [Example 41.24]; 92.1
COc1cc(-c2cnc(N)c(-c3nc4ncccc4o3)c2)ccc1OCCN1CCNCC1 [Example 43C.25]; 99.5
CCN(CC)CCCOc1ccc(-c2cnc(N)c(-c3nc4ncccc4o3)c2)cc1OC [Example 43C.18]; 99.8
CC(=O)N1CCC(n2cc(-c3cnc(N)c(-c4nc5cccnc5o4)c3)cn2)CC1 [Example 57.4]; 99.3
CN1CCC(n2cc(-c3cnc(N)c(-c4nc5ccc(F)c(F)c5o4)c3)cn2)CC1 [Example 41.16]; 98.3
COCc1cccc(-c2cnc(N)c(-c3nc4ccccc4o3)n2)c1 [Example 20.17]; 98.8
Nc1ncc(-c2ccc(CN3CCOCC3)cc2)nc1-c1nc2ccccc2o1 [Example 20.6]; 99.1
Nc1ncc(-c2ccc(C(=O)NCCO)cc2)cc1-c1nc2cnccc2o1 [Example 8A.25]; 98.7
Nc1ncc(-c2cccc(CN3CCCCC3)c2)cc1-c1nc2cccnc2o1 [Example 9A.9]; 95.3
Nc1ncc(-c2ccc(C(=O)NCCCN3CCCCC3)cc2)cc1-c1nc2cccnc2o1 [Example 45A.9]; 99.0
COc1cc(-c2cnc(N)c(-c3nc4ncccc4o3)c2)ccc1OCCCN1CCN(C)CC1 [Example 43C.14]; 99.3
Nc1ncc(-c2cccc(N3CCCCC3)c2)nc1-c1nc2ccccc2o1 [Example 20.4]; 89.2
CN(C)CC(=O)N1CCC(n2cc(-c3cnc(N)c(-c4nc5cccnc5o4)c3)cn2)CC1 [Example 59.7]; 99.6
CC(=O)NCCC(=O)N1CCC(n2cc(-c3cnc(N)c(-c4nc5ncccc5o4)c3)cn2)CC1 [Example 59.4]; 98.9
Nc1ncc(-c2ccc(C(=O)NC3CCCNC3)cc2)cc1-c1nc2cccnc2o1 (stereo not drawn) [Example 45A.84]; 99.1
CN(C)CCOc1ccc(-c2cnc(N)c(-c3nc4ncccc4o3)c2)cc1 [Example 43B.2]; 96.9
CN(C)CCCOc1ccc(-c2cnc(N)c(-c3nc4ncccc4o3)c2)cc1 [Example 43B.10]; 98.4
Nc1ncc(-c2cccc(CO)c2)cc1-c1nc2ccccc2o1 [Example 2.35]; 93.3
Nc1ncc(-c2cccc(-c3ccn[nH]3)c2)cc1-c1nc2cnccc2o1 [Example 8A.28]; 97.5
COc1cc(-c2cnc(N)c(-c3nc4ncccc4o3)c2)ccc1OCCN1CCCCC1 [Example 43C.8]; 99.9

* * *

Target: recombinant Axl tyrosine kinase (Homo sapiens, UniProt P30530)
Construct: encompassing amino acids 473 to 894 of Axl; GST (N); made in house; host or cells: SF126 insect cells
Sequence (P30530 473-894): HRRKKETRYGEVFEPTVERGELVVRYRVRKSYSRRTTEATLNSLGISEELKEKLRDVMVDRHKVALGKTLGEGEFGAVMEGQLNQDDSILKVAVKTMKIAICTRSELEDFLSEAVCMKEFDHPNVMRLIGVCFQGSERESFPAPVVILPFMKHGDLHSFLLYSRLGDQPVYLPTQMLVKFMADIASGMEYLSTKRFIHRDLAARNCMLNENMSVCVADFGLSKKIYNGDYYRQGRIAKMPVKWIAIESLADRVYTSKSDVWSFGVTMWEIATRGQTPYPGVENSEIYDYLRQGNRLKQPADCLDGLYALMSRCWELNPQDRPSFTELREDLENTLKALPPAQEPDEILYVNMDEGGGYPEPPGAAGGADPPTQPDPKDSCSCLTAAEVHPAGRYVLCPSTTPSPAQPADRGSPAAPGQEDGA
Assay: In vitro Axl kinase assay (AlphaScreen), Test (a)
Type: biochemical
Details: test compound at 1 μM; first value quoted; read-out: % Axl tyrosine kinase inhibition at 1 μM concentration
QUANTITY: inhibition at 1 µM (%)

COCC(=O)N1CCC(n2cc(-c3cnc(N)c(-c4nc5ccccc5o4)c3)cn2)CC1; 99.9
CNC(=O)[C@@H]1C[C@@H](n2cc(-c3cnc(N)c(-c4nc5ccccc5o4)c3)cn2)CN1C; 99.9
COCC(=O)N1CCC(n2cc(-c3cnc(N)c(-c4nc5ncccc5o4)c3)cn2)CC1; 99.3
Nc1ncc(-c2cccc(N3CCOCC3)c2)nc1-c1nc2ccccc2s1; 73.4
Nc1ncc(-c2ccc(N3CCNCC3)nc2)cc1-c1nc2ccccc2o1; 99.8
Nc1ncc(-c2cnn(C3CCNCC3)c2)nc1-c1nc2ccccc2s1; 99.6
Nc1ncc(-c2cn(C3CCNCC3)nc2CO)cc1-c1nc2ccccc2o1; 100
Nc1ncc(-c2cnn(CCN3CCNCC3)c2)cc1-c1nc2ccccc2o1; 99.9

* * *

Biological target: recombinant Axl tyrosine kinase (Homo sapiens, UniProt P30530)
Construct: encompassing amino acids 473 to 894 of Axl; GST (N); made in house; host or cells: SF126 insect cells
Assay: In vitro Axl kinase assay (AlphaScreen), Test (a)
Type: biochemical
Conditions: test compound at 1 μM; first value quoted
QUANTITY: % Axl tyrosine kinase inhibition at 1 μM concentration (%)

Example molecules with recorded % Axl tyrosine kinase inhibition at 1 μM concentration:
CN1CCN(S(=O)(=O)CCCOc2ccc(-c3cnc(N)c(-c4nc5ncccc5o4)c3)cc2)CC1 [Example 43B.24]; 98.2
Nc1ncc(-c2ccc(C(=O)N3CCN4CCCC4C3)cc2)cc1-c1nc2cccnc2o1 (stereo not shown) [Example 45A.74]; 99.9

A. COc1cc(-c2cnc(N)c(-c3nc4ncccc4o3)c2)ccc1OC1CCNCC1 [Example 43C.29]
B. N#Cc1ccc(-c2cnc(N)c(-c3nc4ccccc4o3)c2)cc1 [Example 2.44]
Smaller % Axl tyrosine kinase inhibition at 1 μM concentration value? Options are A and B Refer to your chosen item by its label in the answer.
B
(B: 25.0%, A: 99.9%)

* * *

Molecular target: recombinant Axl tyrosine kinase (Homo sapiens, UniProt P30530)
Construct: encompassing amino acids 473 to 894 of Axl; GST (N); made in house; host or cells: SF126 insect cells
Assay: In vitro Axl kinase assay (AlphaScreen), Test (a)
Type: biochemical
Details: test compound at 1 μM; first value quoted
QUANTITY: % Axl tyrosine kinase inhibition at 1 μM concentration (%)

CC(=O)N1CCC(n2cc(-c3cnc(N)c(-c4nc5ncccc5o4)c3)cn2)CC1 [Example 57.1]; 98.5
CN(CCN1CCCC1)C(=O)c1ccc(-c2cnc(N)c(-c3nc4cccnc4o3)c2)cc1 [Example 45A.70]; 98.8
Nc1ncc(-c2ccc(S(=O)(=O)NCCO)cc2)cc1-c1nc2cccnc2o1 [Example 9A.14]; 97.0
Nc1ncc(-c2ccc(OC[C@H]3CCCN3)cc2)cc1-c1nc2ncccc2o1 [Example 43B.28]; 98.7
CN(C)CCCNC(=O)c1ccc(-c2cnc(N)c(-c3nc4ncccc4o3)c2)cc1 [Example 10A.12]; 99.0
Nc1ncc(-c2ccc(C(=O)N3CCC(N4CCCC4)CC3)cc2)cc1-c1nc2cccnc2o1 [Example 45A.63]; 99.1
CC1CN(CCCOc2ccc(-c3cnc(N)c(-c4nc5ncccc5o4)c3)cc2)CC(C)N1 (stereo not drawn) [Example 43B.42]; 96.6
Nc1ncc(-c2cccc(S(=O)(=O)N3CCOCC3)c2)cc1-c1nc2cnccc2o1 [Example 8A.13]; 71.3
N#Cc1cccc(-c2cnc(N)c(-c3nc4ccccc4o3)c2)c1 [Example 2.40]; 40.7
CN1CCC(n2cc(-c3cnc(N)c(-c4nc5ccc(Cl)cc5o4)c3)cn2)CC1 [Example 7.7]; 99.0

I. CNC(=O)c1nn(C2CCNCC2)cc1-c1cnc(N)c(-c2nc3ccccc3o2)c1 [Example 62.4]
II. Nc1ncc(-c2cccc(N3CCOCC3)c2)cc1-c1nc2ncccc2o1 [Example 10A.1]
Between I and II , whose measured % Axl tyrosine kinase inhibition at 1 μM concentration reads higher? Refer to your chosen item by its label in the answer.
I

Origin of the recorded values: patent US8017611B2
